details: ethyl acetate; stood at room temperature overnight
assayReadout: Solubility, Ethyl Acetate (w/v %)
Answer format: numeric, w/v % implied, no suffix.

Ask | Value lookup for Solubility, Ethyl Acetate; key = C[N+](C)(C)c1ccc(-c2ccc([N+](C)(C)C)cc2)cc1.O=C(C=C([O-])C(F)(F)F)c1ccc2ccccc2c1.O=C(C=C([O-])C(F)(F)F)c1ccc2ccccc2c1.O=C(C=C([O-])C(F)(F)F)c1ccc2ccccc2c1.O=C(C=C([O-])C(F)(F)F)c1ccc2ccccc2c1.O=C(C=C([O-])C(F)(F)F)c1ccc2ccccc2c1.O=C(C=C([O-])C(F)(F)F)c1ccc2ccccc2c1.O=C(C=C([O-])C(F)(F)F)c1ccc2ccccc2c1.O=C(C=C([O-])C(F)(F)F)c1ccc2ccccc2c1.[Eu+3].[Eu+3]
Reply | 3.46

====

// reported Fluorescence Intensity per item
test: Fluorescence (photoluminescence) intensity in ethanol, fluorescence spectrophotometer RF-5300PC; type: physicochemical; settings: 25 mg of compound in 100 ml of ethanol
Simply state the number, no unit and no words.

C[N+](C)(C)CCCC[N+](C)(C)C.O=C(C=C([O-])C(F)(F)F)c1ccccc1.O=C(C=C([O-])C(F)(F)F)c1ccccc1.O=C(C=C([O-])C(F)(F)F)c1ccccc1.O=C(C=C([O-])C(F)(F)F)c1ccccc1.O=C(C=C([O-])C(F)(F)F)c1ccccc1.O=C(C=C([O-])C(F)(F)F)c1ccccc1.O=C(C=C([O-])C(F)(F)F)c1ccccc1.O=C(C=C([O-])C(F)(F)F)c1ccccc1.[Eu+3].[Eu+3] : 502

Ask | Value lookup for Fluorescence Intensity; key = C[N+](C)(C)CC[N+](C)(C)C.O=C(C=C([O-])C(F)(F)F)c1ccc2ccccc2c1.O=C(C=C([O-])C(F)(F)F)c1ccc2ccccc2c1.O=C(C=C([O-])C(F)(F)F)c1ccc2ccccc2c1.O=C(C=C([O-])C(F)(F)F)c1ccc2ccccc2c1.O=C(C=C([O-])C(F)(F)F)c1ccc2ccccc2c1.O=C(C=C([O-])C(F)(F)F)c1ccc2ccccc2c1.O=C(C=C([O-])C(F)(F)F)c1ccc2ccccc2c1.O=C(C=C([O-])C(F)(F)F)c1ccc2ccccc2c1.[Eu+3].[Eu+3]
Reply | 662

====

details: methyl ethyl ketone; stood at room temperature overnight
assayReadout: Solubility, Methyl Ethyl Ketone

C[N+](C)(C)CCCC[N+](C)(C)C.O=C(C=C([O-])C(F)(F)F)c1ccc2ccccc2c1.O=C(C=C([O-])C(F)(F)F)c1ccc2ccccc2c1.O=C(C=C([O-])C(F)(F)F)c1ccc2ccccc2c1.O=C(C=C([O-])C(F)(F)F)c1ccc2ccccc2c1.O=C(C=C([O-])C(F)(F)F)c1ccc2ccccc2c1.O=C(C=C([O-])C(F)(F)F)c1ccc2ccccc2c1.O=C(C=C([O-])C(F)(F)F)c1ccc2ccccc2c1.O=C(C=C([O-])C(F)(F)F)c1ccc2ccccc2c1.[Tb+3].[Tb+3] : over 10.0 w/v %
C[N+](C)(C)CCCC[N+](C)(C)C.O=C(C=C([O-])C(F)(F)F)c1ccccc1.O=C(C=C([O-])C(F)(F)F)c1ccccc1.O=C(C=C([O-])C(F)(F)F)c1ccccc1.O=C(C=C([O-])C(F)(F)F)c1ccccc1.O=C(C=C([O-])C(F)(F)F)c1ccccc1.O=C(C=C([O-])C(F)(F)F)c1ccccc1.O=C(C=C([O-])C(F)(F)F)c1ccccc1.O=C(C=C([O-])C(F)(F)F)c1ccccc1.[Eu+3].[Eu+3] : over 10.0 w/v %

====

details: xylene; stood at room temperature overnight
assayReadout: Solubility, Xylene

Ask | Value lookup for Solubility, Xylene; key = C[N+](C)(C)c1ccc([N+](C)(C)C)cc1.O=C(C=C([O-])C(F)(F)F)c1ccc2ccccc2c1.O=C(C=C([O-])C(F)(F)F)c1ccc2ccccc2c1.O=C(C=C([O-])C(F)(F)F)c1ccc2ccccc2c1.O=C(C=C([O-])C(F)(F)F)c1ccc2ccccc2c1.O=C(C=C([O-])C(F)(F)F)c1ccc2ccccc2c1.O=C(C=C([O-])C(F)(F)F)c1ccc2ccccc2c1.O=C(C=C([O-])C(F)(F)F)c1ccc2ccccc2c1.O=C(C=C([O-])C(F)(F)F)c1ccc2ccccc2c1.[Eu+3].[Eu+3] [Luminous Organic Compound 4]
Reply | 0.22 w/v %

====

details: methyl ethyl ketone; stood at room temperature overnight
assayReadout: Solubility, Methyl Ethyl Ketone

C[N+](C)(C)c1ccc(-c2ccc([N+](C)(C)C)cc2)cc1.O=C(C=C([O-])C(F)(F)F)c1ccc2ccccc2c1.O=C(C=C([O-])C(F)(F)F)c1ccc2ccccc2c1.O=C(C=C([O-])C(F)(F)F)c1ccc2ccccc2c1.O=C(C=C([O-])C(F)(F)F)c1ccc2ccccc2c1.O=C(C=C([O-])C(F)(F)F)c1ccc2ccccc2c1.O=C(C=C([O-])C(F)(F)F)c1ccc2ccccc2c1.O=C(C=C([O-])C(F)(F)F)c1ccc2ccccc2c1.O=C(C=C([O-])C(F)(F)F)c1ccc2ccccc2c1.[Eu+3].[Eu+3] : over 10.0 w/v %
C[N+](C)(C)CCCC[N+](C)(C)C.O=C(C=C([O-])C(F)(F)F)c1ccc2ccccc2c1.O=C(C=C([O-])C(F)(F)F)c1ccc2ccccc2c1.O=C(C=C([O-])C(F)(F)F)c1ccc2ccccc2c1.O=C(C=C([O-])C(F)(F)F)c1ccc2ccccc2c1.O=C(C=C([O-])C(F)(F)F)c1ccc2ccccc2c1.O=C(C=C([O-])C(F)(F)F)c1ccc2ccccc2c1.O=C(C=C([O-])C(F)(F)F)c1ccc2ccccc2c1.O=C(C=C([O-])C(F)(F)F)c1ccc2ccccc2c1.[Al+3].[Al+3] : over 10.0 w/v %
C[N+](C)(C)CCCCCC[N+](C)(C)C.O=C(C=C([O-])C(F)(F)F)c1ccc2ccccc2c1.O=C(C=C([O-])C(F)(F)F)c1ccc2ccccc2c1.O=C(C=C([O-])C(F)(F)F)c1ccc2ccccc2c1.O=C(C=C([O-])C(F)(F)F)c1ccc2ccccc2c1.O=C(C=C([O-])C(F)(F)F)c1ccc2ccccc2c1.O=C(C=C([O-])C(F)(F)F)c1ccc2ccccc2c1.O=C(C=C([O-])C(F)(F)F)c1ccc2ccccc2c1.O=C(C=C([O-])C(F)(F)F)c1ccc2ccccc2c1.[Eu+3].[Eu+3] : over 10.0 w/v %

====

conditions: ethanol; stood at room temperature overnight
assayReadout: Solubility, Ethanol (w/v %)
Answer format: numeric, w/v % implied, no suffix.

Ask | Value lookup for Solubility, Ethanol; key = CCCC[N+](C)(C)CCCC[N+](C)(C)CCCC.O=C(C=C([O-])C(F)(F)F)c1ccc2ccccc2c1.O=C(C=C([O-])C(F)(F)F)c1ccc2ccccc2c1.O=C(C=C([O-])C(F)(F)F)c1ccc2ccccc2c1.O=C(C=C([O-])C(F)(F)F)c1ccc2ccccc2c1.O=C(C=C([O-])C(F)(F)F)c1ccc2ccccc2c1.O=C(C=C([O-])C(F)(F)F)c1ccc2ccccc2c1.O=C(C=C([O-])C(F)(F)F)c1ccc2ccccc2c1.O=C(C=C([O-])C(F)(F)F)c1ccc2ccccc2c1.[Eu+3].[Eu+3] [Luminous Organic Compound 6]
Reply | 0.14

====

settings: ethyl acetate; stood at room temperature overnight
assayReadout: Solubility, Ethyl Acetate

CCCC[N+](C)(C)CCCC[N+](C)(C)CCCC.O=C(C=C([O-])C(F)(F)F)c1ccc2ccccc2c1.O=C(C=C([O-])C(F)(F)F)c1ccc2ccccc2c1.O=C(C=C([O-])C(F)(F)F)c1ccc2ccccc2c1.O=C(C=C([O-])C(F)(F)F)c1ccc2ccccc2c1.O=C(C=C([O-])C(F)(F)F)c1ccc2ccccc2c1.O=C(C=C([O-])C(F)(F)F)c1ccc2ccccc2c1.O=C(C=C([O-])C(F)(F)F)c1ccc2ccccc2c1.O=C(C=C([O-])C(F)(F)F)c1ccc2ccccc2c1.[Eu+3].[Eu+3] [Luminous Organic Compound 6] : over 10.0 w/v %
C[N+](C)(C)c1ccc([N+](C)(C)C)cc1.O=C(C=C([O-])C(F)(F)F)c1ccc2ccccc2c1.O=C(C=C([O-])C(F)(F)F)c1ccc2ccccc2c1.O=C(C=C([O-])C(F)(F)F)c1ccc2ccccc2c1.O=C(C=C([O-])C(F)(F)F)c1ccc2ccccc2c1.O=C(C=C([O-])C(F)(F)F)c1ccc2ccccc2c1.O=C(C=C([O-])C(F)(F)F)c1ccc2ccccc2c1.O=C(C=C([O-])C(F)(F)F)c1ccc2ccccc2c1.O=C(C=C([O-])C(F)(F)F)c1ccc2ccccc2c1.[Eu+3].[Eu+3] [Luminous Organic Compound 4] : over 10.0 w/v %
C[N+](C)(C)CC[N+](C)(C)C.O=C(C=C([O-])C(F)(F)F)c1ccc2ccccc2c1.O=C(C=C([O-])C(F)(F)F)c1ccc2ccccc2c1.O=C(C=C([O-])C(F)(F)F)c1ccc2ccccc2c1.O=C(C=C([O-])C(F)(F)F)c1ccc2ccccc2c1.O=C(C=C([O-])C(F)(F)F)c1ccc2ccccc2c1.O=C(C=C([O-])C(F)(F)F)c1ccc2ccccc2c1.O=C(C=C([O-])C(F)(F)F)c1ccc2ccccc2c1.O=C(C=C([O-])C(F)(F)F)c1ccc2ccccc2c1.[Eu+3].[Eu+3] [Luminous Organic Compound 1] : over 10.0 w/v %
